tested on: HS 578T breast; experiment: NCI-60 one-dose screen, 48 h; conditions: 10 µM unless noted
The panel holds about 83,000 compounds, 20% with a hit somewhere; the sample as a whole holds those more often. Calls of active or inactive are those of the source. How the source made its calls: active means growth percent below 10; inactive means the rest.
Your answer must be one of the following: yes (1) (active), no (0) (inactive)

Consider the worked cases shown below.
Record request — test call for CC(C)(C)NC(=O)C(OC(=O)c1cccc(Cl)c1)c1ccc(Cl)cc1 (stereo not given)
no (0)

Record request — test call for CCCCCCCNC(=O)CCCNc1ncnc2c1ncn2-c1cccc(C(C)O)c1 (stereo not given)
no (0)

Record request — test call for C=C1C(=O)O[C@H]2[C@H]1CC/C(COC(=O)C(C)c1ccc(CC(C)C)cc1)=C\CC[C@@]1(C)O[C@@H]21 (stereo not given in full)
yes (1)

Record request — test call for CCN(CC)CCNc1nc2ccccc2c2c(=O)c3cc(Cl)ccc3sc12
no (0)

Record request — test call for Oc1ccc(Cl)cc1Cc1cc(Cl)cc(Cl)c1O
yes (1)

Record request — test call for CCOC(=O)c1cn2ncnc(Oc3ccc(NC(=O)NCCN(C)C)c(Cl)c3)c2c1C
no (0)

Record request — test call for O=c1ccc(N=Nc2ccccc2)ccc1Cl
no (0)

Record request — test call for O=c1c2cc(F)ccc2sc2c(NCCCNCCO)nc3ccc(F)cc3c12
no (0)

***
Record request — test call for Cc1ccc(C(=O)NN2C(=O)CSC2c2cccc([N+](=O)[O-])c2)cn1 (stereo not given)
no (0)

Record request — test call for O=C(N/N=C/c1c(Cl)cccc1Cl)c1ccc(C(F)(F)F)nc1Nc1cccc(C(F)(F)F)c1
no (0)
